- Run description: Pharmacokinetic experiment in rats
- Assay type: in vivo, Sprague-Dawley rats
- Condition label: male, Sprague-Dawley, plasma; rat, IV 2 mg/kg single dose; read-out: Vz pred
Measured attribute: Vd

Task: Data request, read-out Vd, for O=C(Nc1ccc(OC(F)(F)Cl)cc1)c1cnc(N2CC[C@@H](O)C2)c(-c2cnsc2)c1 [Example 2]
Result: 0.57 L/kg

====

- Run description: Pharmacokinetic experiment in rats
- Assay type: in vivo, Sprague-Dawley rats
- Condition label: male, Sprague-Dawley, plasma; rat, IV 2 mg/kg single dose
Measured attribute: AUC(0-t) (ng·h/mL)
Write the value in ng·h/mL as a bare number.

Task: Data request, read-out AUC(0-t), for O=C(Nc1ccc(OC(F)(F)Cl)cc1)c1cnc(N2CC[C@@H](O)C2)c(-c2cnsc2)c1 [Example 2]
Result: 5450

====

- Run description: Pharmacokinetic experiment in rats
- Format: in vivo, Sprague-Dawley rats
- Condition label: male, Sprague-Dawley, plasma; rat, PO 20 mg/kg single dose; read-out: MRTINF pred
Measured attribute: MRT inf (h)
Write the value in h as a bare number.

Task: Data request, read-out MRT inf, for O=C(Nc1ccc(OC(F)(F)Cl)cc1)c1cnc(N2CC[C@@H](O)C2)c(-c2cnsc2)c1 [Example 2]
Result: 5.13

====

- Run description: Pharmacokinetic experiment in rats
- Type: in vivo, Sprague-Dawley rats
- Condition label: male, Sprague-Dawley, plasma; rat, IV 2 mg/kg single dose; read-out: MRTINF pred
Measured attribute: MRT inf (h)
Write the value in h as a bare number.

Task: Data request, read-out MRT inf, for `O=C(Nc1ccc(OC(F)(F)Cl)cc1)c1cnc(N2CC[C@@H](O)C2)c(-c2cnsc2)c1`
Result: 1.17

====

- Run description: Pharmacokinetic experiment in rats
- Format: in vivo, Sprague-Dawley rats
- Condition label: male, Sprague-Dawley, plasma; rat, IV 2 mg/kg single dose
Measured attribute: Cmax
Please give the number followed by its unit.

Task: Data request, read-out Cmax, for `O=C(Nc1ccc(OC(F)(F)Cl)cc1)c1cnc(N2CC[C@@H](O)C2)c(-c2cnsc2)c1`
Result: 5280 ng/mL
